target system: human pancreatic lipase (Homo sapiens, UniProt P16233)
Construct: PL from the human pancreas (triacylglycerol acyl hydrolase, EC 3.1.1.3); from tissue; host or cells: human pancreas
Sequence (P16233 17-465): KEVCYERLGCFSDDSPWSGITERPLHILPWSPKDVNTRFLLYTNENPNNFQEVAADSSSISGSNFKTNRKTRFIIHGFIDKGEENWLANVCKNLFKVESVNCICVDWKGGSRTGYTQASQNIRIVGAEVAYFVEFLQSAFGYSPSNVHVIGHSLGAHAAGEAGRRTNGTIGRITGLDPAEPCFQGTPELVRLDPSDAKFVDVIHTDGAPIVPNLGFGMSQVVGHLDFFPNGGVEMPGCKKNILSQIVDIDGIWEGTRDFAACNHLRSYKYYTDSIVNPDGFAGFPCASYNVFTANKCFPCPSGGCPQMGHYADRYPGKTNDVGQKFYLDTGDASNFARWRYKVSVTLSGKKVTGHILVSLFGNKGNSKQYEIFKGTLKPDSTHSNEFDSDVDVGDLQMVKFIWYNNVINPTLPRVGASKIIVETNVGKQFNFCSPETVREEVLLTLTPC
protocol details: In vitro assay using human pancreatic lipase (4-MUO hydrolysis, fluorometric)
Type: biochemical
experimental parameters: human PL 2 U/mL, 4-MUO 0.05 mM, mean ± SEM
Please note: IC50 exactly at 40 µM is class 0. Only values below 40 µM get class 1.

These solved cases illustrate the format of a correct answer.
| compound | cat |
| --- | --- |
| O=c1cc(-c2cc(O)c(O)c(O)c2)oc2cccc(O)c12 [Flavonoid 36] | class 1 |
| O=c1cc(-c2cccc(O)c2)oc2cc(O)cc(O)c12 [Flavonoid 14] | class 0 |
| O=c1cc(-c2ccccc2)oc2c(O)c(O)cc(O)c12 [Flavonoid 42, Norwogonin] | class 0 |
| O=c1c(O)c(-c2cc(O)c(O)c(O)c2)oc2cc(O)cc(O)c12 [Flavonoid 38, Myricetin] | class 1 |
| CCCCc1c(-c2ccc(O)c(O)c2)oc2cc(O)cc(O)c2c1=O [Flavonoid 28] | class 0 |

Asked: Hello, I'm reviewing records and need to know if IC50 of O=c1cc(-c2ccc(O)cc2)oc2cc(O)cc(O)c12 [Flavonoid 15, Apigenin] is below 40 µM. Could you check?
Given back: class 0

Asked: Hello, I'm reviewing records and need to know if IC50 of CCCCCCc1c(-c2ccc(O)c(O)c2)oc2cc(O)cc(O)c2c1=O [Flavonoid 29] is below 40 µM. Could you check?
Given back: class 1

Asked: Hello, I'm reviewing records and need to know if IC50 of CCCCCCCCCCc1c(-c2ccc(O)c(O)c2)oc2cc(O)cc(O)c2c1=O [Flavonoid 30] is below 40 µM. Could you check?
Given back: class 1

----------
Consider the following molecules; for each one, report its inhibition at 50 µM.
target system: human pancreatic lipase (Homo sapiens)
Construct: PL from the human pancreas (triacylglycerol acyl hydrolase, EC 3.1.1.3); from tissue; host or cells: human pancreas
protocol details: In vitro assay using human pancreatic lipase (4-MUO hydrolysis, fluorometric);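 also: Read-out is the initial rate of fluorescent 4-MU release as HPL cleaves the 4-MUO substrate, a rate that scales with the amount of enzyme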
Type: biochemical
experimental parameters: at 50 μM; read-out: PL Inhibition (%) ± SEM, Human
One number for each entry, in %.

For orientation, consider the following solved cases.
| compound structure | inhibition at 50 µM / % |
| --- | --- |
| O=c1c(O)c(-c2ccc(O)c(O)c2)oc2ccccc12 | 44 |
| O=c1cc(-c2ccc(O)c(O)c2)oc2cc(O)cc(O)c12 | 54 |
| C[C@@H]1O[C@@H](OC[C@H]2O[C@@H](Oc3c(-c4ccc(O)c(O)c4)oc4cc(O)cc(O)c4c3=O)[C@H](O)[C@@H](O)[C@@H]2O)[C@H](O)[C@H](O)[C@H]1O | 34 |
| O=c1c(O[C@@H]2O[C@H](CO)[C@@H](O)[C@H](O)[C@H]2O)c(-c2ccc(O)cc2)oc2cc(O)cc(O)c12 | 34 |

Let us examine a further case.
Asked: Any idea what inhibition at 50 µM was measured for `O=c1c(O)c(-c2ccc(O)cc2)oc2c(O)c(O)cc(O)c12` ?
Given back: 39
